Prostaglandin G/H synthase 1 (Homo sapiens, UniProt P23219) measurements of pIC50, listed per entry.
Sequence (P23219 whole entry): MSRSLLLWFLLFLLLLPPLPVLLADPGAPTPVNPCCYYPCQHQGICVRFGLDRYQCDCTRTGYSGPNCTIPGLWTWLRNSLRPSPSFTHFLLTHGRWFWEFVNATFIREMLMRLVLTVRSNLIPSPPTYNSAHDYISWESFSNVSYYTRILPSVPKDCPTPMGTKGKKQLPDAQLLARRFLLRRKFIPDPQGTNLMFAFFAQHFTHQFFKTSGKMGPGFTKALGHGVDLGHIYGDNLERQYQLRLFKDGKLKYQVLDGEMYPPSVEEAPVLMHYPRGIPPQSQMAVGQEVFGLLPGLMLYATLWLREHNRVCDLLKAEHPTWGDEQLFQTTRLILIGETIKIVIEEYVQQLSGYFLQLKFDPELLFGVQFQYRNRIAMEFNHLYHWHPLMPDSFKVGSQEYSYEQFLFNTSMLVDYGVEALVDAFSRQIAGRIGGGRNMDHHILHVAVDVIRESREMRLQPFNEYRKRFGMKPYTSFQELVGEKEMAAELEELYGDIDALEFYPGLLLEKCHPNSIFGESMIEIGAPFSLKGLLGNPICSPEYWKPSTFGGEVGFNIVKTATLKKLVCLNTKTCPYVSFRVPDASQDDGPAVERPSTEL
Worth noting: pIC50 values are minus log10 of concentrations stated in mol/L.

Field: example entries. Status: answers known.
• Cc1ccc(S(=O)(=O)N2N=C(C(F)(F)F)CC2c2cccc3ccccc23)cc1 (stereo not drawn) = 3.82
• NS(=O)(=O)c1ccc(N2N=C(C(F)(F)F)CC2c2cccc3c2OCCO3)cc1 (stereo not drawn) = 4.46

Now look at this entry.
Qu. For Prostaglandin G/H synthase 1 (Homo sapiens, UniProt P23219), give pIC50 of the listed molecule: O=S(=O)(c1ccccc1)N1N=C(C(F)(F)F)CC1c1ccc2ccccc2c1 (stereo not drawn)
Ans. 5.14

----------
# Species on record: Homo sapiens
# assay-details: Selectivity index, ratio of IC50 for COX1 (unknown origin) to IC50 for COX2 (unknown origin)
Quick rule for you: Ratio IC50 at 4 or higher means class 1, lower means class 0.

Qu. hey, is Ratio IC50 for this one >= 4? CS(=O)(=O)c1ccc(N2N=C(C(F)(F)F)CC2c2ccc3ccccc3c2)cc1 (stereo not given)
Ans. class 0

Qu. Check if Ratio IC50 >= 4 (inclusive). Item: O=S(=O)(c1ccccc1)N1N=C(C(F)(F)F)CC1c1cccc2c1OCCO2 (stereo not given)
Ans. class 0

Qu. Quick check: does O=S(=O)(c1ccccc1)N1N=C(C(F)(F)F)CC1c1ccc2ccccc2c1 (stereo not given) have Ratio IC50 greater than or equal to 4?
Ans. class 0

----------
# assay-details: Inhibition of mouse B-Raf V600E mutant assessed as as reduction in human N-terminal His-tagged MEK1 phosphorylation pre-incubated with compound for 1 hr
property-measured: log10 IC50 (log10 of the value in nM)
Scale: log10; quantity: IC50; unit before log: nM

# count of solved cases: 2
* CS(=O)(=O)c1ccc(N2N=C(C(F)(F)F)CC2c2ccc3c(c2)OCCO3)cc1 (configuration not stated) | 2.95
* Cc1ccc(S(=O)(=O)N2N=C(C(F)(F)F)CC2c2ccc3ccccc3c2)cc1 (configuration not stated) | 2.93

Qu. Given the compound CCCS(=O)(=O)Nc1ccc(F)c(C(=O)c2c[nH]c3ncc(-c4ccc(Cl)cc4)cc23)c1F , write its reported log10 IC50.
Ans. 1.78

Qu. Give recorded log10 IC50. NS(=O)(=O)c1ccc(N2N=C(C(F)(F)F)CC2c2ccc3c(c2)OCO3)cc1 (configuration not stated)
Ans. 3.58

Qu. Tell us which log10 IC50 value is on record for Cc1ccc(S(=O)(=O)N2N=C(C(F)(F)F)CC2c2ccc3c(c2)OCCO3)cc1 (configuration not stated)
Ans. 2.40

Qu. Output measured log10 IC50 for this item: O=S(=O)(c1ccccc1)N1N=C(C(F)(F)F)CC1c1cccc2c1OCCO2 (configuration not stated)
Ans. 3.72

Qu. Given the compound Cc1ccc(S(=O)(=O)N2N=C(C(F)(F)F)CC2c2cccc3c2OCO3)cc1 (configuration not stated) , write its reported log10 IC50.
Ans. 3.05

Qu. # return recorded log10 IC50 for entry CS(=O)(=O)c1ccc(N2N=C(C(F)(F)F)CC2c2ccc3ccccc3c2)cc1 (configuration not stated)
Ans. 2.83

Qu. Quote log10 IC50 reported for O=S(=O)(c1ccccc1)N1N=C(C(F)(F)F)CC1c1ccc2c(c1)OCO2 (configuration not stated) please.
Ans. 3.38

Qu. Retrieve log10 IC50 measured for CS(=O)(=O)c1ccc(N2N=C(C(F)(F)F)CC2c2cccc3c2OCCO3)cc1 (configuration not stated) and print it.
Ans. 2.08

Qu. // Input: CS(=O)(=O)c1ccc(N2N=C(C(F)(F)F)CC2c2cccc3ccccc23)cc1 (configuration not stated) . Output its log10 IC50 only.
Ans. 3.93

Qu. Report log10 IC50, nothing else, for this compound: NS(=O)(=O)c1ccc(N2N=C(C(F)(F)F)CC2c2ccc3ccccc3c2)cc1 (configuration not stated)
Ans. 3.06

----------
Measured Ratio IC50, listed per entry for reference.
# Species on record: Homo sapiens
# assay-details: Selectivity index, ratio of IC50 for COX1 (unknown origin) to IC50 for COX2 (unknown origin)
Respond with the number and no other words.

* NS(=O)(=O)c1ccc(N2N=C(C(F)(F)F)CC2c2ccc3ccccc3c2)cc1 (configuration not stated) | 1.3
* CS(=O)(=O)c1ccc(N2N=C(C(F)(F)F)CC2c2ccc3c(c2)OCO3)cc1 (configuration not stated) | 411
* O=S(=O)(c1ccccc1)N1N=C(C(F)(F)F)CC1c1ccc2c(c1)OCCO2 (configuration not stated) | 54
* CS(=O)(=O)c1ccc(N2N=C(C(F)(F)F)CC2c2cccc3c2OCO3)cc1 (configuration not stated) | 269
* NS(=O)(=O)c1ccc(N2N=C(C(F)(F)F)CC2c2cccc3c2OCO3)cc1 (configuration not stated) | 197

Qu. Identify measured Ratio IC50 associated with Cc1ccc(S(=O)(=O)N2N=C(C(F)(F)F)CC2c2cccc3ccccc23)cc1 (configuration not stated)
Ans. 1.7

The measured values listed here are drawn from ChEMBL document CHEMBL3352811.
